Experiment: Toxicity liver stage against HepG2, at 10uM
Type: cell-based
Parameters: test concentration 10 uM, cell line HepG2-A16-CD81EGFP
Conditions: human, HepG2-A16-CD81EGFP cells; read-out: INHIBITION

Compound | cytotoxicity at 10 µM
Cn1ccnc1CN1CCC(CNS(=O)(=O)c2cccnc2)C1 (centres undefined) | 6.03%
Cc1nc2c(c(N(C)C)n1)CCN(C(=O)c1sccc1S(N)(=O)=O)C2 | -2.29%
CCNC(=O)c1ccc(NC(=O)N(C)Cc2cccn2C)c(C)c1 | -0.132%
Cn1cc(CN2CCCC3(CCN3S(C)(=O)=O)C2)cn1 (centres undefined) | -68.4%
CCc1noc(C(C)N2CCN(CCOCC(F)(F)F)CC2)n1 (centres undefined) | -9.45%
CSCCC(=O)N1CCc2c(ncnc2N2CCOCC2)C1 | -4.88%
Cc1ncc2c(n1)CCN(CCCc1nc3ccccc3o1)C2 | -18.7%
Cc1cc(N2CCC(N(C)C(=O)c3sccc3C)CC2)nc(C)n1 | 25.9%
CN(C)Cc1nnc(C2CCCN(c3nc(C(N)=O)cs3)C2)n1C (centres undefined) | 1.05%
CCOCCN1CCN(CC(O)c2ccc(OC)cc2)CC1 (centres undefined) | -2.28%
CCC(=O)c1ccccc1NN1c2ccccc2C(=O)C1(C)OC (centres undefined) | 8.57%
CCc1nc(C)c(CN2CCOC(Cc3ccccc3Cl)C2)[nH]1 (centres undefined) | -0.527%
Cc1n[nH]c(C)c1NC(=O)Nc1cccnc1N1CCCC1 | -14%
CS(=O)(=O)NCC(Cc1cccc(F)c1)N1CCNC1=O (centres undefined) | -2.91%
CN(CC1CC1)c1ccc2ccc(C(=O)NCCN3CCOCC3)cn12 | 5.57%
Cn1cnc2c(-c3cccnc3)nc(C3CCNCC3)cc21 | -99.9%
COc1ccc(OC)c(CN(C)c2ncc(S(N)(=O)=O)s2)c1 | 5.8%
Cc1cc(C(=O)NCCN2CCN(S(C)(=O)=O)CC2)no1 | -6.29%
Cn1nc(C2CCCNC2)c2c(C(=O)NC3CC3)cc(C3CC3)nc21 (centres undefined) | 14.5%
Cc1nn(C)c(C)c1C1CCCN1C(=O)c1cnc2n[nH]c(C)c2c1 (centres undefined) | -8.38%
CC(C)COCCC(=O)NS(=O)(=O)c1ccc(Cl)s1 | -21.6%
O=C(COc1ccc2c(c1)OCO2)NCc1ccco1 | 3.22%
Cn1cc(CN2CCC3(CC(=O)N(c4ccc5c(c4)OCO5)C3)C2)cn1 (centres undefined) | -4.97%
Cn1cc(CN2CC[C@H]3OCC[C@@H](C(=O)N4CCCCO4)[C@@H]3C2)cn1 | -2.1%

====

Entries and their cytotoxicity at 10 µM values follow.
Test: Toxicity liver stage against HepG2, at 10uM
Assay type: cell-based
Parameters: test concentration 10 uM, cell line HepG2-A16-CD81EGFP
Conditions: human, HepG2-A16-CD81EGFP cells; read-out: INHIBITION

Molecule | cytotoxicity at 10 µM / %
Cc1cc(F)ccc1C(=O)N1C[C@@H]2COC[C@]2(COCC2CC2)C1 | -146
Cc1nc(CC(C)C)sc1C(=O)N1CCC(C2(C)OCCO2)CC1 | 4.21
O=C(Cn1cc(-c2ccccc2)ncc1=O)NC1CCCCC1 | -8.03
CN(C(=O)CCOc1ccccc1)C1CCN(CC2CCOC2)CC1 (stereo unspecified) | -7.7
O=C(NCC1CCN(CCc2ccccc2)C1)c1c(F)cccc1F (stereo unspecified) | 16.6
Cn1cc(CN2CCCC3(CCN(Cc4cccnc4)C3=O)C2)cn1 (stereo unspecified) | -3.99
NC(=O)CC1c2cccnc2C(=O)N1Cc1ccccc1 (stereo unspecified) | -5.8
Cc1ccn(-c2ccc(N3CCN(Cc4ccccn4)CC3)nn2)n1 | 5.6
COC(=O)C1CN(Cc2ccccc2C(C)(C)C#N)CCO1 (stereo unspecified) | -1.78
Cc1cccc(C)c1NC(=O)CN(C)C(C)c1nc(C(C)(C)C)no1 (stereo unspecified) | -6.85
c1cnc2c(c1)nc1n2[C@@H](CNC2CCOCC2)COC1 | -4.8

====

Assay: Toxicity liver stage against HepG2, at 10uM
Type: cell-based
Set-up: test concentration 10 uM, cell line HepG2-A16-CD81EGFP
Settings: human, HepG2-A16-CD81EGFP cells; read-out: INHIBITION

Compound | Unit Symbol | cytotoxicity at 10 µM
COCCNC(=O)c1sccc1N(C)S(=O)(=O)c1ccc(Cl)cc1 | % | 6.33
Cc1cc(C)n(C2=NC(NCCC(C)C)c3c(sc4c3CCCC4)N2)n1 (centres undefined) | % | 25
O=C(CNC(=O)C1CC1)NCc1ccc(Cl)s1 | % | -3.12
Cc1cnn(CC2CCCN2Cc2nccn2C)c1 (centres undefined) | % | 3.54
CC(O)CN1CCC(CNCc2cccc(OC(C)C)c2)CC1 (centres undefined) | % | -8.16
Cn1cc(CC(=O)N2CCCC(n3cncn3)C2)cn1 (centres undefined) | % | -3.54
Cc1nc2n(n1)CC(Nc1ncnc3c1CCC3)CC2 (centres undefined) | % | -44.1
CC(=O)N1CCC2(CCN(Cc3ccccn3)C2=O)C1 (centres undefined) | % | 0.0869
O=C(CN1CCCC(c2ncc[nH]2)C1)NCCCN1CCCCCC1=O (centres undefined) | % | 6.66
O=C(NC[C@H]1OC[C@@H](NCc2ccccc2F)[C@@H]1O)Nc1ccccc1 | % | -7.3
CCn1ccc(CNC(=O)c2cc(OC)cc(OC)c2)n1 | % | 8.66
C=Cc1ccc(CN2C(=O)C3(CCNCC3)Nc3ccccc32)cc1 | % | 3.39
CCc1c(C)nc2n(c1=O)CC(C(=O)Nc1ccccc1C)CS2 (centres undefined) | % | -1.38
COCCc1noc(CN2CCC(c3ccccc3C(=O)O)C2)n1 (centres undefined) | % | -3.03
O=S(=O)(NCC(O)c1ccc2c(c1)CCO2)c1ccccc1F (centres undefined) | % | -8.25
CC(NCCCC#N)c1ccc(-c2cccnc2)cc1 (centres undefined) | % | 11.3
CNCc1cn(C[C@H]2CC3CCN2C[C@@H]3C(=O)Nc2ccccc2)nn1 (some centres undefined) | % | -0.288
COCCC(=O)N1CCCC(c2noc3nc(C)cc(C(F)(F)F)c23)C1 (centres undefined) | % | -19.9
CCn1nnnc1-c1cccc(NC(=O)CCc2cnn(C)c2)c1 | % | -6.19
O=C1[C@@H]2CN(Cc3ccccn3)C[C@H]2CCN1c1cncnc1 | % | -115
C[S+]([O-])c1nncn1CC(=O)c1ccc(OC(F)F)cc1 (centres undefined) | % | -8.56
O=C(CN1CC(c2nc(Cc3ccccc3)no2)C1)NCC1CCCO1 (centres undefined) | % | -6.06
O=c1ccc(-c2cccs2)nn1CN1CCN(c2ccccn2)CC1 | % | -0.383
O=C(Cn1cccn1)N1CCc2[nH]nc(-c3ccc4c(c3)OCO4)c2C1 | % | -153

====

cytotoxicity at 10 µM reference
Assay: Toxicity liver stage against HepG2, at 10uM
Type: cell-based
Parameters: test concentration 10 uM, cell line HepG2-A16-CD81EGFP
Conditions: human, HepG2-A16-CD81EGFP cells; read-out: INHIBITION
Observation Type: cytotoxicity at 10 µM (%)

Compound | Recorded Result
Cc1noc(C)c1CS(=O)(=O)CC(=O)NCCc1cccs1 | -1.6
O=C(O)C1CCCN1c1nc(-c2ccc(Cl)cc2)cc(C(F)(F)F)n1 (configuration not stated) | 30.1
COc1cccc(CCC(=O)Nc2ccn(C)n2)c1OC | -2.14
COc1cccc(CC2CCCN2CCCC#N)c1 (configuration not stated) | -43.7
Nc1cncc(C(=O)N2Cc3ccccc3OC3(CCOCC3)C2)c1 | 11.9
N#Cc1ccc(C2CC(=O)Nc3c(C(=O)O)nsc32)cc1 (configuration not stated) | 3.02
O=C(NCCc1coc(-c2ccccc2)n1)NC1CC1 | -18.5
CC(C)(C)c1nnc(CN(Cc2cccs2)CC2CCCO2)o1 (configuration not stated) | 15.8
Cc1nc(-c2cn(CCN)nn2)n(-c2ccc(C(F)(F)F)cc2)n1 | -1.77
Cc1nnsc1CNC(=O)c1ccc2c(c1)nc(N1CCOCC1)n2C | -13.8
CCC/C=C/c1ccc(CN2CCN(C)CC2)cn1 | -8.61
CN(Cc1cnn(C)c1)C(=O)CCc1ccc2c(c1)OCO2 | -2.59

====

# cytotoxicity at 10 µM per record follows
Assay: Toxicity liver stage against HepG2, at 10uM
Format: cell-based
Parameters: test concentration 10 uM, cell line HepG2-A16-CD81EGFP
Settings: human, HepG2-A16-CD81EGFP cells; read-out: INHIBITION
Observation Type: cytotoxicity at 10 µM (%)

Compound | Observation Type | Unit Symbol | Recorded Result
COc1ccc(C(=O)N2CC(c3ccncc3)C2)c(OC)c1OC | cytotoxicity at 10 µM | % | -1.86
CN1CCC2(CC1)C(=O)N(CC1CC1)c1ccccc12 | cytotoxicity at 10 µM | % | 3.21
CCCc1nnc([C@H]2CCN(Cc3ncc[nH]3)C2)o1 | cytotoxicity at 10 µM | % | -1.63
Cc1cccc(C(C(=O)N(C)CCc2cn[nH]c2)N(C)C)c1 (configuration not stated) | cytotoxicity at 10 µM | % | -8.06
Nc1nccc(-c2cccc3ccnn23)n1 | cytotoxicity at 10 µM | % | -3.81
COc1ccc(C)cc1CN(Cc1ncc(C)o1)C1CCN(C)C1 (configuration not stated) | cytotoxicity at 10 µM | % | -0.76
CC(=O)N1CCC2(CC1)CC(NC(=O)N(C)C)c1cc(C)ccc12 (configuration not stated) | cytotoxicity at 10 µM | % | 4.3
NC(=O)CN1CC2(CCC1=O)CCN(Cc1cc(F)ccc1Cl)CC2 | cytotoxicity at 10 µM | % | 18.6
CN1C(=O)CC(c2ccccc2)C12CCN(CC1CC1)CC2 (configuration not stated) | cytotoxicity at 10 µM | % | -1.95
CCO[C@@H]1C[C@H]2CN(Cc3ccc(C)o3)CCN2C1 | cytotoxicity at 10 µM | % | -149
CSCC1CCN(c2nc(N)ncc2C)CC1 | cytotoxicity at 10 µM | % | -5.2
Cc1noc(C(C)Nc2ccc(N3CCOCC3)cc2C)n1 (configuration not stated) | cytotoxicity at 10 µM | % | -3.92
